# Study Target: L-lactate dehydrogenase (Plasmodium falciparum (isolate CDC / Honduras))
# Measurement Notes: PfLDH activity inhibition – cell lysate, 3D7 strain, counter-screen for P. falciparum growth inhibition project (AID 2304);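 further: 0% = vehicle and 100% = reference inhibitor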
# Conditions: P. falciparum 3D7 crude extract, LDH APAD/NBT absorbance; at 2 µM; hits give high values
Calls of active or inactive are those of the source. How the calls were made is not given here.
Property Measured: inhibition

Here's what some known entries look like.
Which inhibition is reported for this molecule? CN1CCCCC1CCc1cc(C(=O)Nc2ccc(-c3ccc(O)cc3)cc2)ccc1O (centres undefined) 3% (inactive)

// returns reported inhibition for input CN1CCN(CCCNc2ncc3c(-c4ccc(NC(=O)Nc5cc(C(F)(F)F)ccc5F)c(F)c4)nn(C)c3n2)CC1 1% (inactive)

Further cases:
Quick check: inhibition of CN(C)c1cc(NC(=O)Nc2ccccc2)c2ccccc2n1 ? -5% (inactive)

Which inhibition value belongs to NCCCNc1ccnc2cc(Cl)ccc12 ? 0% (inactive)
